The measured values listed here are drawn from patent US20160075653A1.

logP reference
test: Measurement of log P values by HPLC on reversed phase columns (methods [a] pH 2.3, [b] pH 2.7, [c] pH 7.8); format: physicochemical; settings: HPLC reversed phase, method [c] pH 7.8
assay.readout: logP

1) CC(C)Oc1ccc([C@H]2CCC[C@H]2NC(=O)c2nccnc2Cl)cc1 (relative stereo)	3.21^[c];
2) O=C(NC1CC1c1ccc(Cl)cc1)c1cccnc1C(F)F (stereo not shown)	2.14^[c];
3) O=C(N[C@@H]1CCC[C@@H]1c1ccccc1F)c1ccccc1I (relative stereo)	3.28^[c];
4) O=C(NC1CCCCC1c1ccc(C(F)(F)F)cc1)c1ccccc1C(F)(F)F (stereo not shown)	4.05^[c];

====

experiment: Measurement of log P values by HPLC on reversed phase columns (methods [a] pH 2.3, [b] pH 2.7, [c] pH 7.8); format: physicochemical; details: HPLC reversed phase, method [b] (pH 2.7)
assay.readout: logP

1) O=C(N[C@@H]1CC[C@@H]1c1ccc(F)cc1C(F)(F)F)c1ccccc1I (relative stereo) [Compound 503]	3.50^[b]
2) O=C(N[C@@H]1CC[C@H]1c1cccc(F)c1C(F)(F)F)c1ccccc1 (relative stereo) [Example 591]	3.35^[b]
3) O=C(NC1CC1c1ccc(Cl)cc1)c1ccccc1Br (centres unmarked) [Example 423]	3.13^[b]
4) CC(C)Oc1ccc([C@H]2CCC[C@H]2NC(=O)c2nccnc2Cl)cc1 (relative stereo) [Example 335]	3.23^[b]
5) O=C(NC1CC1c1ccccc1C(F)(F)F)c1cccnc1C(F)(F)F (centres unmarked) [Example 500]	2.79^[b]
6) O=C(NC1CCC1c1ccccc1C(F)(F)F)c1ncccc1Cl (centres unmarked) [Example 458]	3.22^[b]
7) CC(C)Oc1ccc([C@H]2CCC[C@H]2NC(=O)c2nccnc2C(F)(F)F)cc1 (relative stereo) [Example 340]	3.62^[b]
8) O=C(NC1CCC1c1ccccc1C(F)(F)F)c1ccccc1Cl (centres unmarked) [Example 433]	3.01^[b]

====

assay: Measurement of log P values by HPLC on reversed phase columns (methods [a] pH 2.3, [b] pH 2.7, [c] pH 7.8); type: physicochemical; details: HPLC reversed phase, method [c] pH 7.8
logP reference
assay.readout: logP

1) O=C(NC1CC1c1ccc(Cl)cc1)c1cccnc1Cl (stereo not shown)	2.10^[c];
2) O=C(N[C@@H]1CCC[C@@H]1c1ccc(C(F)(F)F)cc1)c1ccccc1C(F)(F)F (relative stereo)	3.79^[c];
3) O=C(N[C@@H]1CCC[C@@H]1c1ccccc1F)c1ccc(I)s1 (relative stereo)	3.58^[c];
4) O=C(NC1CC1c1ccc(Cl)cc1)c1ccccc1I (stereo not shown)	2.88^[c];

====

assay: Measurement of log P values by HPLC on reversed phase columns (methods [a] pH 2.3, [b] pH 2.7, [c] pH 7.8); assay type: physicochemical; settings: HPLC on reversed phase columns, method [b], pH 2.7
assay.readout: logP

1) O=C(N[C@@H]1CCC[C@@H]1c1ccc(F)c(F)c1)c1sccc1Br (relative stereo) [Example 96]	3.79^[b]
2) Cc1nn(C)c(Cl)c1C(=O)N[C@@H]1CCC[C@@H]1c1ccc(F)c(F)c1 (relative stereo) [Example 85]	2.82^[b]
3) Cn1cc(C(=O)NC2CC2c2ccc(Br)cc2)c(C(F)(F)F)n1 (centres unmarked) [Example 25]	3.23^[b]
4) Cc1nn(C)c(C)c1C(=O)NC1CC1c1ccc(F)cc1 (centres unmarked) [Example 15]	2.84^[b]
5) Cc1ccsc1C(=O)N[C@@H]1CCC[C@@H]1c1ccc(F)c(F)c1 (relative stereo) [Example 70]	3.39^[b]
6) Cn1cc(C(=O)N[C@@H]2CCC[C@@H]2c2ccc(F)c(F)c2)c(C(F)F)n1 (relative stereo) [Example 52]	2.64^[b]
7) O=C(N[C@@H]1CCC[C@@H]1c1ccc(F)c(F)c1)c1cccnc1F (relative stereo) [Example 68]	2.76^[b]
8) O=C(N[C@@H]1C[C@H]1c1ccccc1)c1ccccc1I (relative stereo) [Example 44]	2.93^[b]
